The measured values listed here are drawn from PubChem BioAssay (NCI).

test system: SF-268 CNS; experiment: NCI tumour cell line growth inhibition, 48 h
value kind: TGI

[[record]]
molecule = "CC1=CCC(=O)[C@]2(C)C(CC(=O)O)[C@]3(C)C4=C(C)C(c5ccoc5)C[C@@H]4O[C@@H]3[C@H](O)[C@@H]12 (stereo partly drawn)"
value_kind = "TGI"
recorded_value = "> 100 µM"

[[record]]
molecule = "CCn1c(-c2nonc2N)nc2c(C#CC(C)(C)O)ncc(OCC3CCNCC3)c21"
value_kind = "TGI"
recorded_value = "> 25 µM"

[[record]]
molecule = "Cc1cccc2c1C(=O)/C(=C/c1ccccc1C(=O)O)C2"
value_kind = "TGI"
recorded_value = "> 100 µM"

[[record]]
molecule = "CC(=O)O[C@H]1CC[C@]2(C=O)[C@H]3CC[C@]4(C)[C@@H](C5=CC(=O)OC5)CC[C@]4(O)[C@@H]3CC[C@]2(O)C1"
value_kind = "TGI"
recorded_value = "0.806 µM"

[[record]]
molecule = "CC(C)=CCCC1(C)C=Cc2c(ccc3c2[nH]c2cc(O)c(C)cc23)O1 (stereo not drawn)"
value_kind = "TGI"
recorded_value = "10.2 µM"

[[record]]
molecule = "CC1CCCc2c(CC3CC(=O)NC(=O)C3)nc(N)nc21 (stereo not drawn)"
value_kind = "TGI"
recorded_value = "> 100 µM"

[[record]]
molecule = "CC1(C)CC(=O)C=C(NC(=O)c2ccccc2)C1"
value_kind = "TGI"
recorded_value = "> 100 µM"

[[record]]
molecule = "Cn1ccnc1C(=O)/C=C/c1ccc(CC(=O)Nc2cc(F)c(F)c(F)c2)cc1"
value_kind = "TGI"
recorded_value = "9.57 µM"

